# Test system: Staphylococcus aureus
# testSummary: Antibacterial activity against methicillin-resistant Staphylococcus aureus ATCC 43300 assessed as reduction in bacterial growth incubated for 48 hrs by broth microdilution method
# Assay type: functional
parameterMeasured: MIC

Q. State its MIC on Staphylococcus aureus: CC(C)(C)c1ccc(C(=O)NNC(=O)c2cc(I)cc(I)c2O)cc1
A. > 500 µM

Q. Field entry: Cc1ccc(C(=O)N/N=C/c2cc(I)cc(I)c2O)cc1
A. > 500 µM

Q. Next entry: O=C(N/N=C/c1cc(I)c(O)c(I)c1)c1ccc(O)cc1
A. > 500 µM

Q. Same read-out for CC(C)(C)c1ccc(C(=O)N/N=C/c2cc(I)cc(I)c2O)cc1 ?
A. > 500 µM

Q. Subsequent entry: O=C(N/N=C/c1cc(I)c(O)c(I)c1)c1ccc(I)cc1
A. > 250 µM

Q. Check O=C(N/N=C/c1cc(I)c(O)c(I)c1)c1ccc(Br)cc1 too.
A. > 500 µM

----------
# Test system: HepG2
# testSummary: Cytotoxicity against human HepG2 cells assessed as reduction in cell viability incubated for 24 hrs by cell-titer 96 aqueous one solution cell proliferation assay
# Type: functional, cell-based
# conditionSet: HepG2, 24 h
parameterMeasured: IC50

Q. What value of measured IC50 is listed for O=C(N/N=C/c1cc(I)c(O)c(I)c1)c1ccc(Cl)cc1 ?
A. > 100 µM

Q. // next record Cc1ccc(C(=O)N/N=C/c2cc(I)c(O)c(I)c2)cc1
A. > 100 µM

Q. Entry Cc1ccc(C(=O)N/N=C/c2cc(I)cc(I)c2O)cc1 please
A. > 25 µM

----------
# System: Staphylococcus aureus
# testSummary: Antibacterial activity against methicillin-resistant Staphylococcus aureus ATCC 43300 assessed as reduction in bacterial growth incubated for 48 hrs by broth microdilution method
# Type: functional
What MIC was measured for each of the following?

Q. # lookup: MIC of O=C(N/N=C/c1cc(I)cc(I)c1O)c1ccc(I)cc1
A. > 125 µM

Q. Please give the result for Cc1ccc(C(=O)NNC(=O)c2cc(I)cc(I)c2O)cc1 too.
A. > 125 µM

Q. Try COc1ccc(C(=O)N/N=C/c2cc(I)cc(I)c2O)cc1 next.
A. > 500 µM
